PROTOCOL: Cmax in Sprague-Dawley rat at 10 mg/kg, iv
Assay type: ADME, organism-based
Design: dose 10 mg/kg, route intravenous
REPORTED_CONDITIONS: in vivo

[
  {
    "SMILES": "O=C(COc1ccc(/C=C2\\SC(=O)NC2=O)cc1)Nc1cccc(Cl)c1",
    "Cmax": "27 µM"
  }
]

====

PROTOCOL: Tmax in Sprague-Dawley rat at 10 mg/kg, iv
Assay type: ADME, organism-based
Set-up: dose 10 mg/kg, route intravenous
REPORTED_CONDITIONS: in vivo

[
  {
    "SMILES": "O=C(COc1ccc(/C=C2\\SC(=O)NC2=O)cc1)Nc1cccc(Cl)c1",
    "Tmax [min]": 4.8
  }
]

====

Overview of recorded inhibition for various compounds
ASSAYED_SYSTEM: Nitric oxide synthase, inducible (Mus musculus)
Sequence (whole entry): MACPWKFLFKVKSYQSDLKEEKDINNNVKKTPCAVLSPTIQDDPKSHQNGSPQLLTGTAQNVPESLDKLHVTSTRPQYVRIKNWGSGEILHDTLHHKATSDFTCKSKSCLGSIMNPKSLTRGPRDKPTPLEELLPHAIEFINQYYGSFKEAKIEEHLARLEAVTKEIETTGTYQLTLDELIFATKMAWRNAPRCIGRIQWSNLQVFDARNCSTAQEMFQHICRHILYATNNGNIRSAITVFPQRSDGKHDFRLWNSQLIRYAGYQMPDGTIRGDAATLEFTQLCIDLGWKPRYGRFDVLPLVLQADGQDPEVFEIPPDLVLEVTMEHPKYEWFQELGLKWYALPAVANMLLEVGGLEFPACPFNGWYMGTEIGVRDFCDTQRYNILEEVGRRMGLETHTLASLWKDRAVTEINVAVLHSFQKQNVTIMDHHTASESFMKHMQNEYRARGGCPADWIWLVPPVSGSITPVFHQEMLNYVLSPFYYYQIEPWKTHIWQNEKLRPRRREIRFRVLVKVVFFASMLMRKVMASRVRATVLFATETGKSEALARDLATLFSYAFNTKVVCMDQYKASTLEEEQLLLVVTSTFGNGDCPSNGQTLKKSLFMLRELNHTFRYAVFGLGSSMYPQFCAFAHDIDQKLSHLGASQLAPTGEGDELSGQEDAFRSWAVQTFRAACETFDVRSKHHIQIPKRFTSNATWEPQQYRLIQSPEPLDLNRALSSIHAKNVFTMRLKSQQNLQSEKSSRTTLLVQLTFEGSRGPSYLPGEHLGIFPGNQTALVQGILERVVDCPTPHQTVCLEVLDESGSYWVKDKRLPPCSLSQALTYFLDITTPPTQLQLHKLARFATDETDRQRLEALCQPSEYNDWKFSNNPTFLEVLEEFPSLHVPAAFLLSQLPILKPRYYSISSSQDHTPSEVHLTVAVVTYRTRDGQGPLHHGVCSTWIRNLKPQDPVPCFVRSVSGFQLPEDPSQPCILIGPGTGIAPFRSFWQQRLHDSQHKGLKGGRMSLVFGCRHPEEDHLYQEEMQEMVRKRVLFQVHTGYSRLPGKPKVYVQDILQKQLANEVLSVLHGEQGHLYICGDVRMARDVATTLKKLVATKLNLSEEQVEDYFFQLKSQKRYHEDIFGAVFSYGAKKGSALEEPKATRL
PROTOCOL: Inhibition of iNOS-mediated nitric oxide production in LPS-stimulated mouse RAW 264.7 cells treated 2 hrs before LPS challenge measured after 18 hrs by Griess reaction method relative to control
Format: cell-based
Design: concentration or dose not given beside the values
REPORTED_CONDITIONS: concentration not given here
REPORTED_METRIC: inhibition

[
  {
    "SMILES": "CC(=O)c1ccc(NC(=O)COc2ccc(/C=C3\\SC(=O)NC3=O)cc2)cc1",
    "REPORTED_METRIC": "inhibition",
    "READOUT_VALUE": "10.2%"
  },
  {
    "SMILES": "O=C(COc1ccc(/C=C2\\SC(=O)NC2=O)cc1)Nc1ccc(Cl)cc1",
    "REPORTED_METRIC": "inhibition",
    "READOUT_VALUE": "9.7%"
  },
  {
    "SMILES": "O=C(COc1ccc(/C=C2\\SC(=O)NC2=O)cc1)Nc1ccc(F)c(F)c1",
    "REPORTED_METRIC": "inhibition",
    "READOUT_VALUE": "83.9%"
  },
  {
    "SMILES": "O=C(COc1ccc(/C=C2\\SC(=O)NC2=O)cc1)Nc1ccc(Br)cc1",
    "REPORTED_METRIC": "inhibition",
    "READOUT_VALUE": "23.7%"
  },
  {
    "SMILES": "O=C(COc1ccc(/C=C2\\SC(=O)NC2=O)cc1)Nc1cccc(F)c1",
    "REPORTED_METRIC": "inhibition",
    "READOUT_VALUE": "41.5%"
  }
]
